- target.entity: T1, human bradykinin BK-2 receptor protein (human), P30411
- T1 chain: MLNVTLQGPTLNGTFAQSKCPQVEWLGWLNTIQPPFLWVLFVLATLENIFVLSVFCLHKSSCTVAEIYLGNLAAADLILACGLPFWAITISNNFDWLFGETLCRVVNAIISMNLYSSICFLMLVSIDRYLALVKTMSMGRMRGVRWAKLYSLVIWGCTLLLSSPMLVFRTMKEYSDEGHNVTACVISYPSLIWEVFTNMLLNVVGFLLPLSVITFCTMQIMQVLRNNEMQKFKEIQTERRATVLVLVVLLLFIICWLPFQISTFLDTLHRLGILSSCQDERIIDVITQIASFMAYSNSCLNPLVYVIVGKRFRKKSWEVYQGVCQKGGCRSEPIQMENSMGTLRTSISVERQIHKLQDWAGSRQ
- assay.method.text: displacement of 100 pM [3H]BK, cloned human BK-2 receptor in membranes
Where no end group is shown, it is not given here. [ ]: non-standard residue; d: D form. Hyp = O=C(O)[C@@H]1C[C@@H](O)CN1; 2Thi = N[C@@H](Cc1cccs1)C(=O)O
measurement.label: IC50 (nM)

* [dR]R[Hyp][Hyp]G[2Thi]S[dF][2Thi]R [D-Arg^0-[Hyp^2,3,-Thi^5,8D-Phe^7]BK] | 27
